Assay: Pseudomonas biofilm growth suppression – PAO1 strain, BacTiter-Glo luminescence, LB-PBS, primary screen (AID 1144)
Conditions: P. aeruginosa PAO1 biofilm, 12 h, higher = more signal
ENDPOINT NAME: z-score

COMPOUND | QUANTITATIVE RESULT
COCCOC(=O)N1C(=O)[C@@]2(c3cc(C#CCCO)ccc31)[C@H](C(=O)NC[C@H](O)c1ccccc1)[C@H]1C(=O)O[C@H](c3ccccc3)[C@H](c3ccccc3)N1[C@@H]2c1ccc(OCCO)cc1 | -1.71
COCCOC(=O)N1C(=O)[C@@]2(c3ccccc31)[C@H](c1ccc(O)cc1)N1[C@H](c3ccccc3)[C@H](c3ccccc3)OC(=O)[C@H]1[C@@H]2C(N)=O | 0.0439
COc1ccc([Si](C)(C)[C@@H]2[C@@H](CCO)O[C@]3(C(=O)N(Cc4ccccc4)c4ccc(N(C=O)c5ccccc5)cc43)[C@H]2C)cc1 | -1.1
CN1C(=O)C2C=CC(C(O)C(c3ccccc3)c3ccccc3)N(Nc3ccccc3)C2C1=O (stereo unspecified) | -0.437
C=CCOC(=O)[C@@H]1[C@H]2C(=O)O[C@H](c3ccccc3)[C@H](c3ccccc3)N2[C@H](c2ccc(OCCOC(=O)[C@H]3C[C@H]4C(=O)N[C@@H](CCCC[N+](C)(C)C)C(=O)N4[C@H]3c3cccc(OCCO)c3)cc2)[C@@]12C(=O)Nc1ccc(I)cc12 | -0.0854
NC(=O)NCC#Cc1ccc2c(c1)[C@]1(C(=O)N2)[C@H](c2ccccc2OCCO)N2[C@H](c3ccccc3)[C@H](c3ccccc3)OC(=O)[C@H]2[C@@H]1C(=O)N1CCCCCCC1 | 0.433

###

Target: Torsin-1A (Homo sapiens) (UniProt O14656)
Sequence (O14656 whole entry, looked up): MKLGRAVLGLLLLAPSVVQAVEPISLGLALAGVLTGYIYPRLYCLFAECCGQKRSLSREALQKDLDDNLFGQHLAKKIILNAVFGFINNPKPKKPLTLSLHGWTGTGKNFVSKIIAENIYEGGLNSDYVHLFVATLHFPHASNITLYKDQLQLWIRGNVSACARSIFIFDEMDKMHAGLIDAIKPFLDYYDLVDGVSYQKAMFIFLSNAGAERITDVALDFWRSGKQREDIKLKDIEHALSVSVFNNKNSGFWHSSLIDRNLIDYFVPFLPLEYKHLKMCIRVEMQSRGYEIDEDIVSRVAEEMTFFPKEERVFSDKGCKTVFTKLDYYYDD
Assay: TOR1A wild-type binding on microarray – cell lysate, small-molecule microarray, lysate, 635/667 nm, primary screen (AID 1149)
Details: COS7 hTOR1A-WT lysate, 635 nm fluorescence, higher = more signal
Each entry below carries its recorded composite z-score.

COMPOUND | composite z-score
O=C1C[C@@](C(=O)O)(c2ccc([N+](=O)[O-])cc2)[C@@H](c2ccc(CO)cc2I)N1C1CCCCC1 | -0.757
CC(C)OC(=O)C1=CCC(c2cccc(Cl)c2)O1 (stereo not given) | 1.07
CC(=O)n1cc(C(O)C2C=CC3C(=O)N(c4ccccc4)C(=O)C3N2Nc2ccc(C#N)cc2)c2ccccc21 (stereo not given) | -0.467
CC1(C)C(=O)C(c2ccccc2)=C2CN3C(=O)N(CCc4ccccc4)C(=O)C3(Cc3ccccc3)C=C21 (stereo not given) | 0.736
CO[C@H]1O[C@H](CO)[C@@H](OC(=O)Nc2ccc3c(c2)OCO3)[C@H](OC(=O)Nc2ccc3c(c2)OCO3)[C@H]1OC(=O)Nc1ccc2c(c1)OCO2 | 0.713
Cc1ccc(S[C@]2(C(=O)NCC(F)(F)F)CC(=O)N(C3Cc4ccccc4C3)[C@@H]2c2ccc(CO)cc2I)cc1 | 0.108
O=C(NCC(O)CO)[C@@]1(Cc2ccccc2)COC(c2ccc(OCCCO)cc2)=N1 (stereo not given in full) | -0.0598
CCCC[C@H]1C[C@@H]1[C@@H]1N(P(=O)(c2ccccc2)c2ccccc2)[C@](CO)(c2ccccc2)CC12CC2 | -0.57
NC(=O)NCC#Cc1ccc2c(c1)[C@]1(C(=O)N2)[C@H](C(=O)NC[C@H](O)c2ccccc2)[C@H]2C(=O)O[C@H](c3ccccc3)[C@H](c3ccccc3)N2[C@@H]1c1ccccc1OCCO | -1.05
COC(=O)[C@@]1(Cc2ccccc2)[C@H]2c3cc(C(=O)N(C)C)n(Cc4ccccc4)c3C[C@H]2CN1C(=O)c1ccccc1 | -0.314
C=C(C(=O)CC[C@@H](OC(=O)c1cccnc1)c1ccc(OCCO)cc1)C(C)C | 0.0998
CCCCN1CC=CC23O[C@@H]4/C=C\CCCOC(=O)C4[C@H]2C(=O)N(C(C)CO)[C@@H]3C1=O (stereo not given in full) | -0.534
CN1C(=O)C2C=CC(C(O)C(c3ccccc3)c3ccccc3)N(Nc3ccccc3)C2C1=O (stereo not given) | 0.096
O=C1O[C@@H](c2ccccc2)[C@@H](c2ccccc2)N2[C@@H](c3ccc(O)cc3)[C@]3(C(=O)Nc4ccc(C#CCCO)cc43)[C@@H](C(=O)N3CCCCCCC3)[C@H]12 | 1.37
COc1ccc([Si](C)(C)[C@H]2[C@H](CC(=O)N(CCO)Cc3ccccc3)O[C@@]3(C(=O)N(Cc4cccc(N5C(=O)c6cccc7cccc5c67)c4)c4ccccc43)[C@@H]2C)cc1 | 0.871
